A collection of compounds and their measured GI50
system: UACC-257; assay: NCI tumour cell line growth inhibition, 48 h
Calls of active or inactive are those of the source. No stated cut-off is given here; in the data, active = GI50 up to about 1.1 µM and inactive = higher.
READOUT: GI50

1) CCn1c(=O)c2c3cc(O)ccc3oc2c2ccc(O)cc21 76.6 µM (inactive)
2) CC(C)C(=O)/C=C/c1ccc(Cl)cc1Cl 13.3 µM (inactive)
3) O=C(CCC(=O)Nc1ccc(Cl)cc1)CC(=O)c1ccc2ccccc2c1 > 100 µM (inactive)
4) Cc1nnc2sc(-c3ccc(-c4ccccc4Cl)o3)nn12 44.5 µM (inactive)

* * *

system: SF-268; test: NCI tumour cell line growth inhibition, 48 h
Calls of active or inactive are those of the source. Rule as the data show it: active = GI50 up to about 1.1 µM and inactive = higher.
READOUT: GI50

COMPOUND	VALUE
Cc1ccc2c(c1)C(=O)N1CCC[C@H]1C=N2	31.3 µM (inactive)
CN(C)C(=S)S [SODIUM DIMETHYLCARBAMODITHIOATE]	> 100 µM (inactive)
C[N+]1(CCN=C=NC2CCCCC2)CCOCC1	> 100 µM (inactive)
C1CSCCSCCCSC2CCCCC2SC1 (stereo unspecified)	> 100 µM (inactive)
COc1cc2oc(=O)cc(C)c2c(OC)c1O	> 100 µM (inactive)
CSc1cnn(CCC#N)c(=O)n1	> 100 µM (inactive)

* * *

system: DLD-1; test: NCI tumour cell line growth inhibition, 48 h
The source made the active and inactive calls. Rule as the data show it: active = GI50 up to about 1.1 µM and inactive = higher.
Classes used: T = active, F = inactive

MOLECULE	ASSIGNED CATEGORY
O=C(O)C1CCC(=O)N1C(=O)C(Cl)c1ccccc1 (stereo not given)	F
O=C(Nc1nc2ncn(CCO)c2c(=S)[nH]1)c1ccccc1	F
CCCC(=O)C(CC)/C(CCC(=O)N(Cc1ccccc1)Cc1ccccc1)=N/NC(=O)C[N+](C)(C)C (stereo not given)	F
CC(C)C(=O)N[C@@H](C)C(=O)N(Cc1ccc2ccccc2c1)N=O	F
Nc1ccc2n[se]nc2c1	F
Cc1cc(NCCCCCCNc2cc(C)nc3cc(N(C)C)ccc23)c2ccc(N(C)C)cc2n1	F
Nc1nc(=O)c2c([nH]1)NCC(CNc1ccc(C(=O)N[C@@H](CCC(=O)O)C(=O)O)cc1)N2C=O (stereo not given in full) [LEUCOVORIN CALCIUM]	F
O=c1[nH]c2ccccc2n1C1CCN(CCCC(c2ccc(F)cc2)c2ccc(F)cc2)CC1 [PIMOZIDE]	F
CCCCCCCCCC[C@@H](O)[C@@H]1CC[C@H]([C@H]2CC[C@@H]([C@@H](O)CCCCCCCCCC[C@H]3CC(CC(C)=O)C(=O)O3)O2)O1 (stereo not given in full)	F
O=C1C/C(Br)=C\c2ccccc2-c2ccccc21	T
CC#COP(=O)(OCC)OCC	F
C1OC1CN1CCN(CC2CO2)CC1 (stereo not given)	F
CC/N=C(/C#N)NCC	F
COC(=O)C(Cc1nc2ccc(Cl)cc2nc1O)/C(=N\N)C(=O)Nc1cc(C)c(Cl)cc1S(=O)(=O)O (stereo not given)	F
COc1ccc(C[C@@H]2NC[C@@H](O)[C@@H]2OC(C)=O)cc1	F

* * *

test system: M19-MEL; test: NCI tumour cell line growth inhibition, 48 h
The source made the active and inactive calls. Rule as the data show it: active = GI50 up to about 1.1 µM and inactive = higher.
Classes used: 1 for active, -1 for inactive

COMPOUND	TARGET ENTITY	ASSIGNED CATEGORY
C/C=C(/C)C(=O)O[C@H]1[C@H](O)CC(c2ccc3c(c2O)C(=O)C2=C(O)C4(OC)C(=O)C(C(N)=O)=C(O)[C@H](CC(=O)c5ccccc5O)C4CC2[C@@]3(C)OC)O[C@@H]1C (stereo partly drawn)	M19-MEL	1
CC(=O)Nc1ccc(C(=O)NN2C(=O)C(Cl)C2c2ccccc2)cc1 (stereo not drawn)	M19-MEL	-1
CC(C)NC(C)C(C)c1ccccc1 (stereo not drawn)	M19-MEL	-1

* * *

system: OVCAR-4; experiment: NCI tumour cell line growth inhibition, 48 h
Activity calls are given as the source filed them. Rule as the data show it: active = GI50 up to about 1.1 µM and inactive = higher.
A collection of compounds and their measured GI50

COMPOUND	TARGET ENTITY	GI50
C=C1C(=O)O[C@@H]2[C@H](O)[C@@H](C)[C@@H]3C=CC(=O)[C@@]3(C)[C@H](OC(=O)C=C(C)C)[C@H]12	OVCAR-4	1.98 µM (inactive)
Cc1c2c(ccc3ccccc32)c[n+]2ccccc12	OVCAR-4	12 µM (inactive)
O=S(O)CCCCCSSSCCCCCS(=O)O	OVCAR-4	52 µM (inactive)
O=C1C/C(Br)=C\c2ccccc2-c2ccccc21	OVCAR-4	2.53 µM (inactive)
CC#COP(=O)(OCC)OCC	OVCAR-4	> 100 µM (inactive)
O=C(C#Cc1ccccc1)C1=Cc2ccccc2OC1	OVCAR-4	3.34 µM (inactive)
CN1CCN(c2nc(N)c(Br)c(Cl)n2)CC1	OVCAR-4	> 100 µM (inactive)
OCCCSCCO	OVCAR-4	> 100 µM (inactive)
COC(=O)C1=C(C(=O)OC)C23CC1C1C(C(=O)OC)=C(C(=O)OC)C12C1C=CC3C2C(=O)OC(=O)C21 (centres undefined)	OVCAR-4	39.4 µM (inactive)
CN(/N=C/C=N/N(C)C1=NCCN1)C1=NCCN1	OVCAR-4	> 100 µM (inactive)
CCOC(=O)C1(NC(=O)OC(C)(C)C)CCc2[nH]oc(=O)c2C1 (centres undefined)	OVCAR-4	> 100 µM (inactive)
C=C(C)C(O)CCC1(C)C=Cc2c(c(C)cc3c2[nH]c2ccccc23)O1 (centres undefined)	OVCAR-4	16.5 µM (inactive)
CC(=O)Nc1ccc(C(=O)NN2C(=O)C(Cl)C2c2ccccc2)cc1 (centres undefined)	OVCAR-4	> 100 µM (inactive)
O=C(O)CCc1c2ccc(=O)c(O)c-2oc2c(O)c(O)ccc12	OVCAR-4	46.2 µM (inactive)
CC(C)OP(=O)(OC(C)C)/C(=N/Nc1ccc([N+](=O)[O-])cc1)Nc1ccc(N/C(=N\Nc2ccc([N+](=O)[O-])cc2)P(=O)(OC(C)C)OC(C)C)cc1	OVCAR-4	35.7 µM (inactive)
Cc1cc2c(O)nc(N)nc2nc1C	OVCAR-4	> 100 µM (inactive)
CCc1c(-c2ccc(OC)cc2)c(=O)oc2cc(O)ccc12	OVCAR-4	33.8 µM (inactive)
CC1CCC2(NC1)OC1CC3C4CC=C5CC(OC6OC(CO)C(OC7OC(C)C(O)C(O)C7O)C(O)C6OC6OC(C)C(O)C(O)C6O)CCC5(C)C4CCC3(C)C1C2C (centres undefined)	OVCAR-4	2.54 µM (inactive)
CC1=NNC(=O)[C@H]2[C@H]1CCC1[C@@H]2CC[C@]2(C)[C@@H](O)CC[C@@H]12 (some centres undefined)	OVCAR-4	> 100 µM (inactive)
CCOC(=O)C1=C(N)N(c2ccccc2)/C(=C2\SC(=S)N(c3ccc(C)cc3)C2=O)S1	OVCAR-4	18 µM (inactive)
COC(=O)C1=C(O)C(C(=O)OC)[C@]2(O)[C@H](C(=O)OC)[C@H]1C[C@@H](c1ccc([N+](=O)[O-])cc1)[C@H]2C(=O)OC (some centres undefined)	OVCAR-4	34.8 µM (inactive)
O=C(O)/C=C/C=C/c1ccc2c(c1)OCO2	OVCAR-4	> 100 µM (inactive)
O=[N+]([O-])c1c(F)c(F)c2c(c1F)Nc1ccccc1S2	OVCAR-4	2.58 µM (inactive)
Cn1c(=O)oc2cc(C(O)CN3CCN(Cc4ccccn4)CC3)c(Cl)cc21 (centres undefined)	OVCAR-4	> 100 µM (inactive)

* * *

system: NCI-H226; assay: NCI tumour cell line growth inhibition, 48 h
Activity calls are given as the source filed them. Rule as the data show it: active = GI50 up to about 1.1 µM and inactive = higher.
Classes used: yes for active, no for inactive

COMPOUND	ASSIGNED CATEGORY
CCCC(=O)Nc1ccc(O)c2c1C1CCCCCC21 (stereo unspecified)	no
CCCCCCOc1ccc(C(=O)NO)cc1	no
COc1ccc(N2C(=O)C3c4[nH]c5ccc(OC)cc5c4C4CCC(C(C)(C)C)CC4C3C2=O)cc1 (stereo unspecified)	no
CC(C)Oc1ccc2c(c1)OCC1Cc3ccccc3OC21 (stereo unspecified)	no
Cc1ccc(I)cc1N=C=S	no
O=c1c2cc([N+](=O)[O-])ccc2n2n1Cc1ccccc1CC2	no
CN(C)CCNC(=O)c1cccc2c(Nc3ccc(S(N)(=O)=O)cc3)c3ccccc3nc12	yes
CCc1c(-c2ccc(OC)cc2)c(=O)oc2cc(O)ccc12	no
CC(C)(N)CO[C@H]1C[C@H]2CC[C@@]1(C)C2(C)C	no
Cn1c(=O)c2c(nc3sc4ccccc4c(=O)n32)n(C)c1=O	no
C[N+](C)(C)CC1CCCCC1=O (stereo unspecified)	no

* * *

test system: Hs-578T; assay: NCI tumour cell line growth inhibition, 48 h
Activity calls are given as the source filed them. No stated cut-off is given here; in the data, active = GI50 up to about 1.1 µM and inactive = higher.
Classes used: class 1 = active, class 0 = inactive

COMPOUND	ASSIGNED CATEGORY
COC1=CC(=O)C2=C(C1=O)[C@H]1CC[C@]3(C)C(=O)CC[C@H]3[C@@H]1CC2	class 0
C/C(=C\CO)CC/C=C(\C)CNc1c(F)c(F)c(F)c(F)c1F	class 0
COC(=O)c1c(O)ccc2c1c1c(n2Cc2ccccc2)C(=O)c2ccccc2C1=O	class 0
CNC(=O)OCc1c(COC(=O)NC)c(C)n(-c2ccc(Br)cc2)c1C	class 0
CC(C)(C)[Si](C)(C)OCCC1CC2(S(=O)(=O)C3=CC=C=C=C3)ON1CC2S(=O)(=O)c1ccccc1 (centres undefined)	class 0
NCC(=O)Nc1ccccc1	class 0
c1cc(-c2ccc(Oc3ccc(-c4ccncc4)cc3)cc2)ccn1	class 0
CC(NC(=O)/C(=C/c1ccccc1)NC(=O)c1ccccc1)C(=O)O (centres undefined)	class 0
Cc1ccc(S(=O)(=O)OC2CCN(C)CC2)cc1	class 0
CCSC1=N/C(=C\c2ccc(N(C)C)cc2)C(Cl)=N1	class 0
COc1ccc2c(c1)CCN1CCCc3ccc(OC)cc3C21 (centres undefined)	class 0
ClCCCN1CCN(CCCl)CC1	class 0
NC(N)=NC(P(=O)(O)O)P(=O)(O)O	class 1
O=c1[nH]c(=O)n(C2CC(O)C(CO)O2)cc1C1=NC1 (centres undefined)	class 0
